- Measurement Target: 5-hydroxytryptamine receptor 2A (Mus musculus);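 note: CHO-K1 cells with tagged receptor and beta-arrestin; agonist potency measured as compound-induced activation of the receptor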
- Sequence (P35363 whole entry): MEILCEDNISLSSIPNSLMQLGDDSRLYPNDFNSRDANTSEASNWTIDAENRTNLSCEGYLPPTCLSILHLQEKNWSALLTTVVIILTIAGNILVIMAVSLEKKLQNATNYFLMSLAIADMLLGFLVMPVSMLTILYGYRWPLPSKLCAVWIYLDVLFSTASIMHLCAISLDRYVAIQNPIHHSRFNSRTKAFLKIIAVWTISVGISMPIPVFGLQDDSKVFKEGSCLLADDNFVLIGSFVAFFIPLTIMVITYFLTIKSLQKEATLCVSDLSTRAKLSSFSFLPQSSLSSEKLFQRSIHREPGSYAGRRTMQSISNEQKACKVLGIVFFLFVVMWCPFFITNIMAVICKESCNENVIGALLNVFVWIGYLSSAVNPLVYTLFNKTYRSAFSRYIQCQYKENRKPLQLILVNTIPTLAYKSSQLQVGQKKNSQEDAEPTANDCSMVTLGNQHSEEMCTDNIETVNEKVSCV
- Type: functional, cell-based
Calls of active or inactive are those of the source.
Measure: EC50

Here is how some compounds turned out for EC50.
CCn1c(=O)cc(SCC(=O)NCCCN2CCN(c3ccccc3F)CC2)c2ccccc21    16.9 nM (active)
Fc1cccc(CN2CCN(c3ncccn3)CC2)c1    277 nM (active)
COC(=O)C1=C(Cn2cnc3ccccc32)NC(=O)NC1c1cc(C)ccc1C (centres undefined)    8440 nM (active)

EC50 reported for this compound COc1ccc(CN2CCN(C(=O)c3ccco3)CC2)cc1OC : 2800 nM (active)

----------
- Measurement Target: FAD-linked sulfhydryl oxidase ALR (Homo sapiens)
- Sequence (P55789 whole entry): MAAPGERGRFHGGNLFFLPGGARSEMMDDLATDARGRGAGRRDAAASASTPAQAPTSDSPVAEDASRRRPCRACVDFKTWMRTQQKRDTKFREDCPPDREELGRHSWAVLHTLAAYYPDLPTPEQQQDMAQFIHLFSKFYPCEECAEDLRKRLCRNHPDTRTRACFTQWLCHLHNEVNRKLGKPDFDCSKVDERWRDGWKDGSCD
- Run Description: ALR-catalysed DTT oxidation blockers – biochemical, H2O2 detection, luminescence, cherry-pick, dose response (AID 493248)
The source made the active and inactive calls.
Please provide measured AC50 for the entries that follow.

Here is how some molecules turned out for AC50.
COc1cc(/C=N/Nc2nc3ccccc3o2)cc(OC)c1O    25 nM (active)
C/C(=N\Nc1cccc(Cl)c1)c1ccncc1    536 nM (active)
O=C(CN1C(=O)CCC1=O)NNc1ccc2ccccc2c1    90 nM (active)
Cc1ccc2c(c1)CCCN2CC(=O)N(C)c1c(N)n(Cc2ccccc2)c(=O)[nH]c1=O    20000 nM (active)
CNc1nc(N)c(C(=O)C(C)(C)C)s1    4570 nM (active)

Would you be so kind as to report AC50 for each listed record?
1. Cc1ccn2c(NC3CCCC3)c(-c3ccncc3)nc2c1
2. Cc1cc(Oc2ncccc2[N+](=O)[O-])c2cc(Cl)ccc2n1
3. COc1cccc(CNc2ccc3c(c2)ncn3C(C)C)c1OC
4. CN(C)c1ccc(C2N(c3ccc(F)cc3)C(=O)C3CCCN32)cc1 (centres undefined)

1450 nM (active)
409 nM (active)
2580 nM (active)
49400 nM (active)
